biological target: Leucine-rich repeat serine/threonine-protein kinase 2 (Homo sapiens, UniProt Q5S007)
Sequence (Q5S007 whole entry): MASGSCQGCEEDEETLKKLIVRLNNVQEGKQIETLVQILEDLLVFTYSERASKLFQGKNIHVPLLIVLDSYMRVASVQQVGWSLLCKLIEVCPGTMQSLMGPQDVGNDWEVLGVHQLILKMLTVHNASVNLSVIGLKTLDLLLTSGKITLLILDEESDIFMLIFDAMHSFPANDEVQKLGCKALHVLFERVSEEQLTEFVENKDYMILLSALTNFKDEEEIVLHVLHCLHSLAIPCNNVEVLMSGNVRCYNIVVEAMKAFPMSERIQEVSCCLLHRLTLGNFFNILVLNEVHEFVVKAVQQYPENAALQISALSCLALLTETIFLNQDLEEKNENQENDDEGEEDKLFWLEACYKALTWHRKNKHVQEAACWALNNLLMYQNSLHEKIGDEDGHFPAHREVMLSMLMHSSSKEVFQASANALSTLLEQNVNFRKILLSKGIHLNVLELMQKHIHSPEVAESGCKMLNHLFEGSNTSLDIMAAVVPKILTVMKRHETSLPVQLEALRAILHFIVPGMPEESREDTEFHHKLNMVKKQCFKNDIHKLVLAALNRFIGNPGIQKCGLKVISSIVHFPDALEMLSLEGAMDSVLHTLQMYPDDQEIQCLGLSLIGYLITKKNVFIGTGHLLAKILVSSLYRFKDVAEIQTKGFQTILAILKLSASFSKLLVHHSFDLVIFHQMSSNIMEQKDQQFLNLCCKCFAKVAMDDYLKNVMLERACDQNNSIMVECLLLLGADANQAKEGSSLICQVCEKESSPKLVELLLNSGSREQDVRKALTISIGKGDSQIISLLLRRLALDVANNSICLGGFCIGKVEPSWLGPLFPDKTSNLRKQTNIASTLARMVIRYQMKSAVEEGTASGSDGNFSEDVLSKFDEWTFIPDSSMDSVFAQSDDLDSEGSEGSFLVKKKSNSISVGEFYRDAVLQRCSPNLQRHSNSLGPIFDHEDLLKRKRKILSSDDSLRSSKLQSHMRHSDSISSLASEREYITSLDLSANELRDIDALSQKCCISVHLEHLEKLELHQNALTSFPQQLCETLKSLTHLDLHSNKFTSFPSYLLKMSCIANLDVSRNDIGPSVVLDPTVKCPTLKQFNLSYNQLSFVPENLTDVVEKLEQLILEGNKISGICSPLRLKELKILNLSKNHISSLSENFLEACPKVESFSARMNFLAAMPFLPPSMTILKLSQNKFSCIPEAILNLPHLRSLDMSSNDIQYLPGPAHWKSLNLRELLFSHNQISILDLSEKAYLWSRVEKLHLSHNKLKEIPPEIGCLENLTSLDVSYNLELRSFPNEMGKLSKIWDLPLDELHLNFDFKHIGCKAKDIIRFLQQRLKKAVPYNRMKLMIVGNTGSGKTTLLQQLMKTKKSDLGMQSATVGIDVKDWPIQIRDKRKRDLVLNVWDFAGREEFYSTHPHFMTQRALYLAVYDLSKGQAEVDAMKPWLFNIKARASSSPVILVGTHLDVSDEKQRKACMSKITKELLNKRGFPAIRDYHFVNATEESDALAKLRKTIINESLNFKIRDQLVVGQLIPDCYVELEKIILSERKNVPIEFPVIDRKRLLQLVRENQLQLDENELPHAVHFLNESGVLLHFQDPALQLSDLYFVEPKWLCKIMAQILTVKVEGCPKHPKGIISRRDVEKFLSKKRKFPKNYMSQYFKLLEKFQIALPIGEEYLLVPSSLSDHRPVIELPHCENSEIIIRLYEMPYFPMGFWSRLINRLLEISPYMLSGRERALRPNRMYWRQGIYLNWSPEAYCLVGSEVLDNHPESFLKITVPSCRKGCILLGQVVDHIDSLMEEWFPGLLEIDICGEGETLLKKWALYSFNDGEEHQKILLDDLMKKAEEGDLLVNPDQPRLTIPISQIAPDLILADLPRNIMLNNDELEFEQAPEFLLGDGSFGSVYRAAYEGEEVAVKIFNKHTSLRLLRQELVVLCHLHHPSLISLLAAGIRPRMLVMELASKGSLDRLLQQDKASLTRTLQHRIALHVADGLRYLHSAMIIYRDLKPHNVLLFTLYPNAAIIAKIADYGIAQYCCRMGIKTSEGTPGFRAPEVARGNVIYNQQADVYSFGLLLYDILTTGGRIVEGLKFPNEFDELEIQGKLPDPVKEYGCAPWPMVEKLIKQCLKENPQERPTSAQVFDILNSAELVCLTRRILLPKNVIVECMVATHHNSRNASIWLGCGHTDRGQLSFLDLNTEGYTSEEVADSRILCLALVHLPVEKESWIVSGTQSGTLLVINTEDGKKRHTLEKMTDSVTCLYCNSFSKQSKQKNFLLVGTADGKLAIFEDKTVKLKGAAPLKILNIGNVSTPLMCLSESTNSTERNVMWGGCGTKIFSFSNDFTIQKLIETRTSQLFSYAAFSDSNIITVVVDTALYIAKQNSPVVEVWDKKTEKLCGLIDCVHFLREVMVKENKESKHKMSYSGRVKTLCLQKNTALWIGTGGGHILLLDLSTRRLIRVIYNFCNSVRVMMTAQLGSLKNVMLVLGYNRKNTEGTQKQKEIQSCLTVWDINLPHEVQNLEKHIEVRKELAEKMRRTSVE
// Ki lookup, one value per entry
quantity measured: Ki

CCNc1nc(Nc2cc(F)c(C(=O)NCC(C)(C)O)cc2OC)ncc1C(F)(F)F	1 nM
CNc1nc(Nc2cc(OC)c(C(=O)N3CCOCC3)cc2F)ncc1C(F)(F)F	7 nM
COc1cc(C(=O)N2CCOCC2)c(F)cc1Nc1ncc(C(F)(F)F)c(NC2CC2)n1	1 nM
CNc1nc(Nc2cnc(C3CCOCC3)cc2OC)ncc1C(F)(F)F	9 nM
CCNc1nc(Nc2cc(F)c(C(=O)N3CCOCC3)cc2OC)ncc1C(F)(F)F	1 nM
CNc1nc(Nc2cc(C)c(C(=O)N3CCOCC3)cc2OC)ncc1C(F)(F)F	2 nM
CNc1nc(Nc2cc(OC)c(C(=O)N3CCOCC3)cc2OC)ncc1C(F)(F)F	1 nM

----------
assay: Ratio of unbound drug level in brain to plasma in cynomolgus monkey at 10 to 65 mg/kg, po administered for 7 days; assay type: ADME, organism-based, Macaca fascicularis; set-up: dose 10-65 mg/kg, route oral; conditions: brain and plasma (unbound)
quantity measured: Kp uu at 168 h

CCNc1nc(Nc2cc(F)c(C(=O)N3CCOCC3)cc2OC)ncc1C(F)(F)F	0.6

----------
assay: Clearance in human hepatocytes; assay type: ADME, cell-based, Liver, Hepatocyte
Reported values of CLhep predicted for individual entries
quantity measured: CLhep predicted (mL/min/kg)

CNc1nc(Nc2cc(Cl)c(C(=O)N3CCOCC3)cc2OC)ncc1C(F)(F)F	2.8
COc1cc(C(=O)N2CCOCC2)c(F)cc1Nc1ncc(C(F)(F)F)c(NC2CC2)n1	4.9
CNc1nc(Nc2ccc(C(=O)N3CCOCC3)cc2OC)ncc1C(F)(F)F	1.8
CNc1nc(Nc2cc(OC)c(C(=O)N3CCOCC3)cc2Cl)ncc1C(F)(F)F	0.8
COc1cc(C(=O)N2CCOCC2)ccc1Nc1ncc(Cl)c(OC)n1	1.8
CNc1nc(Nc2cc(OC)c(C(=O)N3CCOCC3)cc2OC)ncc1C(F)(F)F	0.8
CNc1nc(Nc2ccc(C(=O)N3CCOCC3)cc2OC)ncc1C#N	2.1
CNc1nc(Nc2cc(C)c(C(=O)N3CCOCC3)cc2OC)ncc1C(F)(F)F	4.2
CNc1nc(Nc2cc(F)c(C(=O)N3CCOCC3)cc2OC)ncc1C(F)(F)F	3.9

----------
test system: MDR1 (human); test: Apparent permeability from apical to basolateral side of MDCK cells expressing human MDR1; type: ADME, cell-based, Canis lupus familiaris; conditions: dog
As shown below, each of these molecules has a reported Papp A→B value.
quantity measured: Papp A→B (×10⁻⁶ cm/s)

CNc1nc(Nc2cc(C)c(C(=O)N3CCOCC3)cc2OC)ncc1C(F)(F)F	5
COc1cc(C(=O)N2CCOCC2)c(F)cc1Nc1ncc(C(F)(F)F)c(NC2CC2)n1	10.9
CCNc1nc(Nc2cc(OC)c(C(=O)N3CCOCC3)cc2Cl)ncc1C(F)(F)F	8.3
CNc1nc(Nc2cc(OC)c(C(=O)N3CCOCC3)cc2Cl)ncc1C(F)(F)F	10.4
CNc1nc(Nc2ccc(C(=O)N3CCOCC3)cc2OC)ncc1C(F)(F)F	18.2
CNc1nc(Nc2cc(Cl)c(C(=O)N3CCOCC3)cc2OC)ncc1C(F)(F)F	8.1
CNc1nc(Nc2cc(F)c(C(=O)N3CCOCC3)cc2OC)ncc1C(F)(F)F	3.3
[2H]C1([2H])OC([2H])([2H])C([2H])([2H])N(C(=O)c2cc(Cl)c(Nc3ncc(C(F)(F)F)c(NCC)n3)cc2OC)C1([2H])[2H]	8.5
CNc1nc(Nc2ccc(C(=O)N3CCOCC3)cc2OC)ncc1C#N	3.1
COc1cc(C(=O)N2CCOCC2)ccc1Nc1ncc(Cl)c(OC)n1	8.2
CCNc1nc(Nc2cc(F)c(C(=O)N3CCOCC3)cc2OC)ncc1C(F)(F)F	10.4
CNc1nc(Nc2cc(OC)c(C(=O)N3CCOCC3)cc2OC)ncc1C(F)(F)F	4.4
CNc1nc(Nc2ccc(C(=O)N3CCOCC3)cc2OC)ncc1Cl	4.4
COc1cc(C(=O)N2CCOCC2)ccc1Nc1ncc(Br)c(OC)n1	5.6

Each recorded value in this set is attributed to ChEMBL document CHEMBL2176933.
